system: T47D; assay: NCI tumour cell line growth inhibition, 48 h
The source made the active and inactive calls. No stated cut-off is given here; in the data, active = GI50 up to about 1.1 µM and inactive = higher.
Pick one and only one: active, inactive

compound	category
CC(=O)n1[nH]c(=O)n(-c2ccc(Cl)cc2)c1=O	inactive
CC(=O)n1c(COS(C)(=O)=O)nc2ccccc21	inactive
COc1cc(C2SC(=N)Nc3c2c(C)nn3C(=O)Cc2ccccc2)ccc1O (stereo not given)	inactive
CC(C)CC(NP(=O)(O)OC1OC(C)C(O)C(O)C1O)C(=O)NC(Cc1c[nH]c2ccccc12)C(=O)O (stereo not given)	inactive
N=C(N)N/N=C/c1nc2sccn2c1[N+](=O)[O-]	inactive

[Q] What call does the record list for Clc1ccc(CN2CCCN(Cc3ccc(Cl)cc3)C2c2cc3ccccc3c3ccccc23)cc1 ?
[A] inactive

[Q] What call does the record list for Cc1nc2ccccc2c(=O)n1NC(=O)c1ccc(N)cc1 ?
[A] inactive

[Q] What call does the record list for O=C1Nc2ccc(Br)cc2/C1=N/N1C(=O)C(=O)N(C2CCCCC2)C1=S ?
[A] inactive

[Q] What call does the record list for COC1/C=C\C=C(/C)C(=O)NC2=CC(=O)C(N)=C(CC(C)CC(OC)C(O)C(C)C=C(C)C1OC(N)=O)C2=O (stereo not given) ?
[A] active

[Q] What call does the record list for CCOC(=O)C1=C(C)N(Cc2ccccc2)C2(O)C=CC(=O)C3C(=O)N(c4ccccc4)C(=O)C132 (stereo not given) ?
[A] inactive

###

Could you please report measured GI50 for the items listed next?
test system: NCI-H23; experiment: NCI tumour cell line growth inhibition, 48 h
Activity calls are given as the source filed them. Rule as the data show it: active = GI50 up to about 1.1 µM and inactive = higher.

compound	GI50
COc1cc(C(=O)C/C(CCCC(=O)Nc2ccccc2[N+](=O)[O-])=N/NC(=O)c2cc3ccccc3cc2O)ccc1O	41.4 µM (inactive)
CCCCC(=O)OC[n+]1cccc(-c2c(COC(=O)NC(C)C)c(COC(=O)NC(C)C)c3n2CCC3)c1	26.2 µM (inactive)
Cc1ccc(C2SC(=N)Nc3c2c(C)nn3C(=O)c2ccc(Cl)cc2)cc1 (stereo not given)	> 10 µM (inactive)
O=C1Nc2ccc(Br)cc2/C1=N/N1C(=O)C(=O)N(C2CCCCC2)C1=S	7.11 µM (inactive)
O=C(O)C1OC(n2cc(F)c(=O)[nH]c2=O)CC1O (stereo not given)	38.7 µM (inactive)
CC1OC(CO)(n2cnc3c(N)ncnc32)C(O)C1O (stereo not given)	> 100 µM (inactive)

Below are some compounds; for each one, tell me its GI50.
1. COc1nc(N)c(NC2OC(CO)C(O)C2O)c(=O)[nH]1 (stereo not given)
2. C[C@@]1(O)C2CC3CC1(c1ccccc1)CC(/C3=N/O)/C2=N\O (stereo not given in full)

[A]
["> 100 µM (inactive)", "> 100 µM (inactive)"]

Below are some compounds; for each one, tell me its GI50.
1. COc1ccc2c3c1OC1c4[nH]c5ccccc5c4CC4(O)C(C2)N(C)CCC314 (stereo not given)
2. COc1ccc(CC(=O)NCCc2ccc(OC)c(OC)c2)cc1Br
3. CC[P+](C)(Cc1ccccc1)c1ccccc1.O=C(OC(C(=O)[O-])C(OC(=O)c1ccccc1)C(=O)O)c1ccccc1 (stereo not given)
4. CO/N=C(\C)c1ccc(Nc2c3ccccc3nc3occc23)cc1
5. O=C(OCC(Cl)(Cl)Cl)N1CC[C@@H](C2CCCCC2)C1
6. Cc1nc2ccccc2c(=O)n1NC(=O)c1ccc(N)cc1
7. CC1=C(C#N)C2C(=C(C)N1)C(N)=Nc1ccccc12 (stereo not given)
8. CC(C)(C)c1cc(C#N)c2c(c1)C(=O)OC2(c1ccccc1)c1ccccc1C#N (stereo not given)

[A]
["> 100 µM (inactive)", "> 100 µM (inactive)", "> 100 µM (inactive)", "2.36 µM (inactive)", "20.2 µM (inactive)", "> 100 µM (inactive)", "55.2 µM (inactive)", "> 100 µM (inactive)"]

###

Could you please report measured GI50 for the items listed next?
system: 786-0; experiment: NCI tumour cell line growth inhibition, 48 h
Activity calls are given as the source filed them. Cut-off read from the data, not from the text of the source: active = GI50 up to about 1.1 µM and inactive = higher.

compound	assay_target	GI50
COc1cc2nc(-c3ccccc3)cc(O)c2cc1OC	786-0	27.8 µM (inactive)
COc1cc(OC(C)=O)cc2c(OC(C)=O)ccc(OC(C)=O)c12	786-0	> 100 µM (inactive)
Nc1nc(SCCNC(=O)CCc2ccc(O)cc2)nc2c1ncn2C1OC(CO)C(O)C1O (stereo unspecified)	786-0	> 203 µM (inactive)

Below are some compounds; for each one, tell me its GI50.
1. N=C1CCCC1C(=S)SCCC(N)=O (stereo unspecified)
2. O=C1Oc2ccccc2C(=O)/C1=C/N1C(=O)N/C(=C\c2ccccc2O)C1=O
3. COC(=O)CC1CCN(C#N)CC1CC[N+](=O)[O-] (stereo unspecified)
4. CCC(=O)CCC1=Nc2nnc(CCCCc3nnc4n3C(=O)C(CCC(=O)CC)=N4)n2C1=O

[A]
1. > 100 µM (inactive)
2. 68.7 µM (inactive)
3. > 100 µM (inactive)
4. > 100 µM (inactive)

###

system: TK-10; assay: NCI tumour cell line growth inhibition, 48 h
The source made the active and inactive calls. No stated cut-off is given here; in the data, active = GI50 up to about 1.1 µM and inactive = higher.
Could you please report measured GI50 for the items listed next?

compound	assay_target	GI50
O=C(O)c1nc2ccccc2nc1Nc1ccc(F)cc1	TK-10	34.5 µM (inactive)
CC(=O)O[C@@H]1C[C@]2(C(=O)c3ccccc3)C(=O)C(=O)S[C@]12c1ccccc1	TK-10	55.7 µM (inactive)
COc1cc(-c2[o+]c3cc(O)cc(O)c3cc2O)cc(O)c1O	TK-10	> 100 µM (inactive)

Below are some compounds; for each one, tell me its GI50.
1. CC(C)(C)OC(=O)NC(Cc1c[nH]cn1)C(=O)N1CCCC1C(N)=O (centres undefined)
2. O=Cc1c(O)c(C(=O)Nc2ccc3[nH]c(=O)[nH]c3c2)cc2ccccc12
3. O=C1Nc2ccc(Br)cc2/C1=N/N1C(=O)C(=O)N(C2CCCCC2)C1=S

[A]
1: > 100 µM (inactive); 2: > 100 µM (inactive); 3: 12.2 µM (inactive)

###

system: SF-539; assay: NCI tumour cell line growth inhibition, 48 h
Calls of active or inactive are those of the source. No stated cut-off is given here; in the data, active = GI50 up to about 1.1 µM and inactive = higher.
Pick one and only one: t = active, f = inactive

Recorded results for 2 compounds are shown here.
compound	assay_target	category
COc1cc(C(=O)C/C(CCCC(=O)Nc2ccccc2[N+](=O)[O-])=N/NC(=O)c2cc3ccccc3cc2O)ccc1O	SF-539	f
Cc1cccc(Cl)c1NC(=O)/C=C/c1ccccc1	SF-539	f

[Q] What call does the record list for Nc1cc2c(nnn2C2OC(COCc3ccccc3)C(OCc3ccccc3)C2OCc2ccccc2)c(=O)[nH]1 (centres undefined) ?
[A] f

[Q] What call does the record list for Cc1c(C)c2c(c(N)c1C#N)C(=O)N(N)C2=O ?
[A] f

###

Could you please report measured GI50 for the items listed next?
test system: HL-60; assay: NCI tumour cell line growth inhibition, 48 h
The source made the active and inactive calls. Rule as the data show it: active = GI50 up to about 1.1 µM and inactive = higher.

compound	assay_target	GI50
O=C1OC(c2ccccc2)(c2ccccc2)CC1CN1CCOCC1 (stereo unspecified)	HL-60	6.61 µM (inactive)
N=C1CCCC1C(=S)SCCC(N)=O (stereo unspecified)	HL-60	> 100 µM (inactive)
COc1cc(C2SC(=N)Nc3c2c(C)nn3C(=O)Cc2ccccc2)ccc1O (stereo unspecified)	HL-60	> 100 µM (inactive)
Cn1c2ccccc2n2c3nc4ccccc4nc3c(C#N)c12	HL-60	> 87.9 µM (inactive)
O=c1c(Cl)c(Cl)c(=O)c2sc3cc(Cl)ccc3[nH]c1=2	HL-60	7.73 µM (inactive)

# O=C1/C(=C/c2ccc(Cl)cc2)CSc2ccccc21 with HL-60: GI50 is 17.9 µM (inactive)

###

test system: SNB-75; experiment: NCI tumour cell line growth inhibition, 48 h
Active and inactive are the calls of the source. Rule as the data show it: active = GI50 up to about 1.1 µM and inactive = higher.
Could you please report measured GI50 for the items listed next?

Below are some molecules; for each one, tell me its GI50.
1. Cc1cc(C)c2nc3c(c(C(O)C4CCCCN4)c2c1)CC/C3=C\c1ccc(Cl)cc1 (stereo not given)
2. CCOC(=O)c1ccc(N[C@@H]2c3cc4c(cc3C(C3=CC(=O)C(=O)C(OC)=C3)[C@H]3C(=O)OCC32)OCO4)cc1 (stereo not given in full)
3. O=C1C2=Nc3ccccc3C(O)N2c2ccccc21 (stereo not given)
4. Nc1ccc([C@H]2C(=O)N[C@H]3CCC[C@H]32)cc1
5. c1ccc(/N=C(\N2CCCC2)N(CCN2CCCC2)c2ccccc2)cc1

[A]
["54 µM (inactive)", "1.58 µM (inactive)", "23.6 µM (inactive)", "> 100 µM (inactive)", "14.4 µM (inactive)"]

###

tested on: SK-MEL-28; assay: NCI tumour cell line growth inhibition, 48 h
Calls of active or inactive are those of the source. No stated cut-off is given here; in the data, active = GI50 up to about 1.1 µM and inactive = higher. Peptide text beside a SMILES is read from it.
quantity_measured: GI50

Example compounds with recorded GI50:
compound	GI50
Cc1ccc(C2SC(=N)Nc3c2c(C)nn3C(=O)c2ccc(Cl)cc2)cc1 (centres undefined)	> 10 µM (inactive)
CC(C)c1c(O[Si](C(C)C)(C(C)C)C(C)C)cc2c(c1O)CC[C@H]1C(C)(C)CCC[C@]21C	> 100 µM (inactive)
COc1ccc2c3c(c(C(=O)c4ccccc4)oc13)CCC2	> 100 µM (inactive)

Below are some compounds; for each one, tell me its GI50.
1. CC(C)CC(NC(=O)C(CC(C)C)NC(=O)C(Cc1c[nH]cn1)NC(=O)C(C)NC(=O)C(NC(=O)C(C)NC(=O)C(Cc1c[nH]c2ccccc12)NC(=O)C(CCC(=O)O)NC(=O)C(N)Cc1ccccc1)C(C)C)C(N)=O (centres undefined) (H-FEWAVAHLL-NH2; configuration not given here)
2. CCOC(=O)c1cccc(=O)c(C(=O)OCC)c1

[A]
["63.4 µM (inactive)", "38.6 µM (inactive)"]
